Would you kindly list TGI for each of these molecules?
# Test system: SW-620 colon
# assay.info: NCI tumour cell line growth inhibition, 48 h

Below, each entry is followed by its recorded TGI result.
c1ccc(-c2nc(-c3ccccn3)nc(-c3ccccn3)n2)nc1	> 100 µM
Cn1ccnc1CCc1c(Cl)cccc1Cl	> 100 µM

Your task in this section: give TGI for each listed record.
1. COc1cc(C2c3c(ccc4ccccc34)C(=O)C3CCC(=O)N32)cc(OC)c1OC (configuration not stated)
2. COc1ccc2nccc(C3=CCC4CCN(C(=O)c5ccccc5)C3C4)c2c1 (configuration not stated)
3. O=C(Nc1cccc(Cl)c1)Nn1cnnc1
4. CN(C)CCNC(=O)Cn1ccc(=O)c2cc([N+](=O)[O-])ccc21

RESULT:
> 50 µM
> 100 µM
> 100 µM
> 100 µM
